The values you see were collected from patent US8394809B2.

SYSTEM: delta opioid receptor (Mus musculus, UniProt P32300)
Construct: NG108-15 cell membranes were purchased from Applied Cell Sciences (Rockville, Md.); host or cells: NG108-15 cell membranes (purchased)
Sequence (P32300 whole entry): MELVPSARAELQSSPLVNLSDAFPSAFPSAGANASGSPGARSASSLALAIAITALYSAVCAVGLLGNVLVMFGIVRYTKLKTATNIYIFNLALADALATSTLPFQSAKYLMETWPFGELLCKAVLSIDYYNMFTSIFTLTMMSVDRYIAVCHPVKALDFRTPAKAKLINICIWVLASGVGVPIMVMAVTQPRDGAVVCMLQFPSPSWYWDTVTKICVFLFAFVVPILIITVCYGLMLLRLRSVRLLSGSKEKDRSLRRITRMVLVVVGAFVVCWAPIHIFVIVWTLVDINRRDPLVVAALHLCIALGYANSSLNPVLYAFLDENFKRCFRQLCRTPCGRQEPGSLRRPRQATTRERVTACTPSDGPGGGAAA
EXPERIMENT_SUMMARY: [35S]GTPγS binding assay in NG108-15 cell membranes (delta opioid functional assay)
Format: biochemical
EXPERIMENTAL_SETUP: 200 nM compound; relative to calculated max of SNC80 dose response
GTPγS δ-Rel Efficacy @200 nM by entry:

Problem: Observed GTPγS δ-Rel Efficacy @200 nM on delta opioid receptor (Mus musculus, UniProt P32300) for COc1ccc(Oc2nc(Sc3cccc(F)c3)ncc2NC[C@@H]2CCCN2)cc1 [Cpd 47] , please.
Result: 0.481

Problem: Moving on to COc1ccc(Oc2nc(Oc3cccc(C#N)c3)ncc2NC[C@@H]2CCCN2)cc1 [Cpd 53]
Result: 0.705

Problem: Moving on to COc1ccc(Oc2nc(Oc3cccc(OC)c3)ncc2NC[C@@H]2CCCN2)cc1 [Cpd 52]
Result: 0.624
